Molecular target: Epidermal growth factor receptor (Homo sapiens)
Experiment: compounds binding epidermal growth factor receptor – biochemical, small-molecule microarray, 635 nm fluorescence, primary screen (AID 1104);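 further: score merges 667 nm emission intensity with spot signal to noise over triplicate slides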
Settings: EGFR binding, higher = more signal
Grouping by measured composite z-score is done with the following cut points: A (below -0.5), B (-0.5 to below 0.5), C (0.5 or more)

Example entries and their recorded answers appear below.
[[record]]
molecule = "Cc1ccccc1/C=C/C=O"
answer_label = "A"

[[record]]
molecule = "COC(=O)c1c(CC[C@@H](CO)NC(=O)Nc2ncn[nH]2)oc(C(=O)Cc2ccccc2)c1C(=O)OC"
answer_label = "C"

[[record]]
molecule = "CC(C)C(CO)N1C(=O)[C@@H]2[C@H]3C(=O)OCC=C[C@H]3OC23C=CCN(c2ccc4ccccc4c2)C(=O)[C@@H]13 (some centres undefined)"
answer_label = "A"

[[record]]
molecule = "C=CCOC(=O)[C@@H]1[C@H]2C(=O)O[C@H](c3ccccc3)[C@H](c3ccccc3)N2[C@H](c2ccc(OCCOC(=O)[C@H]3C[C@H]4C(=O)N[C@@H](CCCC[N+](C)(C)C)C(=O)N4[C@H]3c3cccc(OCCO)c3)cc2)[C@@]12C(=O)Nc1ccc(I)cc12"
answer_label = "C"

[[record]]
molecule = "NC(=O)[C@@]1(CCS(=O)(=O)c2ccccc2)N=C(c2ccc(OCCCO)cc2)O[C@H]1c1ccccc1"
answer_label = "B"

[[record]]
molecule = "O=C1O[C@H](c2ccccc2)[C@H](c2ccccc2)N2[C@H]1[C@@H](C(=O)N1CCCCCCC1)[C@]1(C(=O)Nc3ccc(C#CC4=CCCCC4)cc31)[C@H]2c1ccc(O)cc1"
answer_label = "C"

[[record]]
molecule = "O=C1OCCC=C[C@H]2OC34C=CCN(CCN5CCOCC5)C(=O)[C@H]3N(CCO)C(=O)[C@@H]4C12 (some centres undefined)"
answer_label = "A"

[[record]]
molecule = "C=C(C(=O)CC[C@@H](OC(=O)c1cccnc1)c1ccc(CO)o1)C(C)C"
answer_label = "B"

[[record]]
molecule = "CN(C)CCCC[C@@H]1NC(=O)[C@H]2C[C@@H](C(=O)NCCCCCNC(=O)CS)[C@@H](c3ccc(O)cc3)N2C1=O"
answer_label = "B"

[[record]]
molecule = "CCCNC(=O)[C@@]1(c2ccc([N+](=O)[O-])cc2)CC(=O)N(CC23CC4CC(CC(C4)C2)C3)[C@@H]1c1ccc(CO)cc1I"
answer_label = "B"


Ask | Determine which band this molecule sits in: COc1ccccc1CN1C(=O)c2ccccc2[C@](Cc2ccccc2I)(C(=O)NCc2ccccc2)[C@@H]1c1ccc(CO)cc1
Reply | A

Ask | Determine which band this molecule sits in: C=CCN1C(=O)[C@]2(Cc3ccccc31)N=C(c1ccc(OCCCO)cc1)O[C@@H]2c1ccccc1
Reply | B

Ask | Determine which band this molecule sits in: C=CCNC(=O)[C@H]1[C@@H]2C(=O)O[C@@H](c3ccccc3)[C@@H](c3ccccc3)N2[C@@H](c2ccc(OCCO)cc2)[C@]12C(=O)N(C(=O)OCCOC)c1ccc(C#CC3(O)CCCCCC3)cc12
Reply | C

Every entry's value here was drawn from PubChem BioAssay.
